tested on: CCRF-CEM leukemia; test: NCI tumour cell line growth inhibition, 48 h
Some compounds, each annotated with its measured TGI.

- query-smiles: "Cc1cccc(C)c1NC(=O)C(=O)CC(=O)/C=C/c1ccccc1"
  TGI: "> 100 µM"
- query-smiles: "CC(C)OP(=O)(OC(C)C)c1nc(-c2ccccc2)n(-c2ccc([N+](=O)[O-])cc2)n1"
  TGI: "> 100 µM"
- query-smiles: "Cc1c(CCN2CCOCC2)c(N2CCOCC2)n2c(nc3ccccc32)c1C#N"
  TGI: "> 10 µM"

###

tested on: HS 578T breast; experiment: NCI tumour cell line growth inhibition, 48 h
*1 amine or outer side, *2 acyl side, *3 side chain or, on linkers, in order; H or OH if unused. Where a SMILES comes first, the peptide text is derived from it. Bridges are numbered along the chain shown (N, C = ends). Roman numbers before positions name the chains, in order. [ ]: non-standard residue; d: D form. Actinocin(9to1) = Cc1c2oc3c(C)ccc(C(=O)[*:1])c3nc-2c(C(=O)[*:2])c(N)c1=O; NMeT = CN[CH](C(=O)O)[CH](C)O; Sar = CNCC(=O)O
measurement-kind: TGI

- molecule: "Cc1c2oc3c(C)ccc(C(=O)NC4C(=O)NC(C(C)C)C(=O)N5CCCC5C(=O)N(C)CC(=O)N(C)C(C(C)O)C(=O)OC4C)c3nc-2c(C(=O)NC2C(=O)NC(C(C)C)C(=O)N3CCCC3C(=O)N(C)CC(=O)N(C)C(C(C)O)C(=O)OC2C)c(N)c1=O (stereo not drawn) (I: TVP[Sar][NMeT] / II: TVP[Sar][NMeT]; ester I:1-I:C, II:1-II:C; linker I:N-II:N via Actinocin(9to1); configuration not given here)"
  result: "> 27.1 µM"
- molecule: "CN=c1c2c(c3[nH]c4ccccc4c4cnc1c34)NCCC2=O"
  result: "> 10 µM"
- molecule: "O=C(O)c1ccc(Oc2nccc(-c3c(-c4ccc(F)cc4)ncn3C3CCNCC3)n2)cc1"
  result: "> 25 µM"

###

Some compounds, each annotated with its measured TGI.
tested on: 786-0 renal; assay: NCI tumour cell line growth inhibition, 48 h

- compound: "O=C(O)NC(c1ccccc1)C(NC(=O)c1ccccc1)c1ccccc1 (stereo unspecified)"
  experimental-system: "786-0 renal"
  TGI: "> 100 µM"
- compound: "CCN(CC)c1ccc2cc(C(N)=S)c(=N)oc2c1"
  experimental-system: "786-0 renal"
  TGI: "> 100 µM"
- compound: "CC(=O)OC[C@]1(C)CCCC2(C)C1CCC1C=C(C)[C@H]3CCC12C3 (stereo partly specified)"
  experimental-system: "786-0 renal"
  TGI: "> 100 µM"
- compound: "Cc1cccc(C)c1NC(=O)C(=O)CC(=O)/C=C/c1ccccc1"
  experimental-system: "786-0 renal"
  TGI: "> 100 µM"
- compound: "Oc1cc2c3c(c1)CCCN3CCC2"
  experimental-system: "786-0 renal"
  TGI: "> 10 µM"
- compound: "CCOP(=O)(OCC)/C(=C/NC(=S)c1ccncc1)C(=O)OC"
  experimental-system: "786-0 renal"
  TGI: "> 100 µM"

###

system: UO-31 renal; test: NCI tumour cell line growth inhibition, 48 h
Some compounds, each annotated with its measured TGI.
measurement-kind: TGI

- compound: "N#CC(C#N)=C/C=C(\\Sc1c(Cl)c(Cl)nc(Cl)c1Cl)c1ccc(Cl)cc1"
  measurement-kind: "TGI"
  result: "> 100 µM"
- compound: "CCOc1ccc(N=Cc2ccc3cc(C)ccc3n2)cc1"
  measurement-kind: "TGI"
  result: "> 100 µM"
- compound: "COc1cccc(/C=C/[N+](=O)[O-])c1"
  measurement-kind: "TGI"
  result: "3.4 µM"
- compound: "CCN(CC)CCCNC(=O)C1COc2cc(-c3cc(=O)c4ccccc4o3)ccc2O1 (stereo not given)"
  measurement-kind: "TGI"
  result: "> 100 µM"
- compound: "CC1=NN(c2cccc(Cl)c2)C2(SCC(=O)N2c2nc3ccccc3s2)/C1=C\\c1ccc(N(C)C)cc1 (stereo not given)"
  measurement-kind: "TGI"
  result: "> 100 µM"

###

Some molecules, each annotated with its measured TGI.
tested on: LOX IMVI melanoma; assay: NCI tumour cell line growth inhibition, 48 h
measurement-kind: TGI

- molecule: "C=C(NC(=O)C(=C)NC(=O)c1csc(C2=NC3c4csc(n4)C4NC(=O)c5csc(n5)C(C(C)(O)C(C)O)NC(=O)C5CSC(=N5)C(=CC)NC(=O)C(C(C)O)NC(=O)c5csc(n5)C3(CC2)NC(=O)C(C)NC(=O)C(=C)NC(=O)C(C)NC(=O)C(C(C)CC)NC2C=Cc3c(C(C)O)cc(nc3C2O)C(=O)OC4C)n1)C(N)=O (centres undefined)"
  experimental-system: "LOX IMVI melanoma"
  result: "> 100 µM"
- molecule: "O=C1c2ccccc2C(=O)N1CC1S(=O)(=O)OCCOS1(=O)=O"
  experimental-system: "LOX IMVI melanoma"
  result: "> 100 µM"
- molecule: "C=C(CN1CCN(c2cccc(C(F)(F)F)n2)CC1)c1ccc(C(=O)Nc2ccccc2N)cc1"
  experimental-system: "LOX IMVI melanoma"
  result: "> 100 µM"
- molecule: "O=C1NC(=O)C(c2ccccc2Cl)=C1Nc1cc(Cl)c(O)c(Cl)c1"
  experimental-system: "LOX IMVI melanoma"
  result: "> 25 µM"

###

system: CAKI-1 renal; test: NCI tumour cell line growth inhibition, 48 h
Some compounds, each annotated with its measured TGI.

- compound: "O=c1cc(N2CCN(CCCCCOc3cc(O)c4c(=O)cc(-c5ccccc5)oc4c3)CC2)c2ccccc2o1"
  TGI: "> 100 µM"
- compound: "O=C(O)c1ccc(Oc2nccc(-c3c(-c4ccc(F)cc4)ncn3C3CCNCC3)n2)cc1"
  TGI: "> 25 µM"
- compound: "O=C(c1ccccc1)c1c(-c2ccccc2)sc2nc3ccccc3nc12"
  TGI: "> 100 µM"
- compound: "Cn1c(=O)n2n(c1=O)C(S(=O)(=O)c1ccccc1)C2 (stereo unspecified)"
  TGI: "> 100 µM"
- compound: "COc1cc2cc3c4cc(OC)c(OC)cc4cc[n+]3cc2cc1OC"
  TGI: "> 100 µM"
- compound: "O=c1c2cc(-c3ccccc3)sc2nc2n1N=C(c1ccc(Cl)cc1)CS2"
  TGI: "> 100 µM"

###

test system: SN12C renal; experiment: NCI tumour cell line growth inhibition, 48 h

- query-smiles: "O=c1[nH]/c(=C/c2ccc(OCc3ccccc3)cn2)c(=O)[nH]/c1=C/c1ccc(F)cc1"
  TGI: "> 50.3 µM"
- query-smiles: "Cc1ccccc1NC(=O)c1c(C)oc2c1C(=O)c1ccccc1C2=O"
  TGI: "> 100 µM"
- query-smiles: "CCO/C=N\\c1c(C#N)c(-c2ccc(Cl)cc2)cn1-c1ccc(C)cc1"
  TGI: "> 100 µM"

###

tested on: OVCAR-5 ovarian; assay: NCI tumour cell line growth inhibition, 48 h
*1 amine or outer side, *2 acyl side, *3 side chain or, on linkers, in order; H or OH if unused. Where a SMILES comes first, the peptide text is derived from it. Bridges are numbered along the chain shown (N, C = ends). Roman numbers before positions name the chains, in order. [ ]: non-standard residue; d: D form. Actinocin(9to1) = Cc1c2oc3c(C)ccc(C(=O)[*:1])c3nc-2c(C(=O)[*:2])c(N)c1=O; NMeT = CN[CH](C(=O)O)[CH](C)O; Sar = CNCC(=O)O
Some molecules, each annotated with its measured TGI.
measurement-kind: TGI

- molecule: "O=C1c2ccccc2C(=O)N1CC1S(=O)(=O)OCCOS1(=O)=O"
  experimental-system: "OVCAR-5 ovarian"
  measurement-kind: "TGI"
  result: "> 100 µM"
- molecule: "O=P1(Oc2ccc(Cl)cc2Cl)Oc2ccc3ccccc3c2-c2c(ccc3ccccc23)O1"
  experimental-system: "OVCAR-5 ovarian"
  measurement-kind: "TGI"
  result: "> 100 µM"
- molecule: "CCOC(=O)N1c2c(ccn2C)-c2ccn(C)c2N1C(=O)OCC"
  experimental-system: "OVCAR-5 ovarian"
  measurement-kind: "TGI"
  result: "35.5 µM"
- molecule: "C=C(CN1CCN(c2cccc(C(F)(F)F)n2)CC1)c1ccc(C(=O)Nc2ccccc2N)cc1"
  experimental-system: "OVCAR-5 ovarian"
  measurement-kind: "TGI"
  result: "> 100 µM"
- molecule: "N#CC1C(=O)SC2c3ccccc3C(=O)c3ccccc3C12 (centres undefined)"
  experimental-system: "OVCAR-5 ovarian"
  measurement-kind: "TGI"
  result: "> 10 µM"
- molecule: "C=C(C)[C@@H]1CC[C@]2(C(=O)O)CC[C@]3(C)[C@H](CC[C@@H]4[C@@]5(C)CCC(NC(=O)c6cccc(OC(C)=O)c6OC(C)=O)C(C)(C)[C@@H]5CC[C@]43C)[C@@H]12 (some centres undefined)"
  experimental-system: "OVCAR-5 ovarian"
  measurement-kind: "TGI"
  result: "> 27.3 µM"
- molecule: "Nc1c2ccccc2nc2ccc3c(=O)cc(-c4ccccc4)oc3c12"
  experimental-system: "OVCAR-5 ovarian"
  measurement-kind: "TGI"
  result: "2.85 µM"
- molecule: "C=C(C#N)C1OCC2OC(C)(C)OC21 (centres undefined)"
  experimental-system: "OVCAR-5 ovarian"
  measurement-kind: "TGI"
  result: "33.9 µM"
- molecule: "C=C(NC(=O)C(=C)NC(=O)c1csc(C2=NC3c4csc(n4)C4NC(=O)c5csc(n5)C(C(C)(O)C(C)O)NC(=O)C5CSC(=N5)C(=CC)NC(=O)C(C(C)O)NC(=O)c5csc(n5)C3(CC2)NC(=O)C(C)NC(=O)C(=C)NC(=O)C(C)NC(=O)C(C(C)CC)NC2C=Cc3c(C(C)O)cc(nc3C2O)C(=O)OC4C)n1)C(N)=O (centres undefined)"
  experimental-system: "OVCAR-5 ovarian"
  measurement-kind: "TGI"
  result: "79.9 µM"
- molecule: "O=C1/C(=C/c2ccc(OC(=O)c3ccccc3)cc2)CCC/C1=C\\c1ccc(OC(=O)c2ccccc2)cc1"
  experimental-system: "OVCAR-5 ovarian"
  measurement-kind: "TGI"
  result: "> 100 µM"
- molecule: "Nc1nc(Cl)c(/C=N\\O)c(NCC2(CO)CCC2)n1"
  experimental-system: "OVCAR-5 ovarian"
  measurement-kind: "TGI"
  result: "> 100 µM"
- molecule: "COc1cc2c(cc1OC)-c1ccc3cc4c(cc3c1N(CCCn1ccnc1)C2)OCO4"
  experimental-system: "OVCAR-5 ovarian"
  measurement-kind: "TGI"
  result: "69.9 µM"
- molecule: "CC[C@@H]1C(=O)OC[C@@H]1Cc1cncn1C"
  experimental-system: "OVCAR-5 ovarian"
  measurement-kind: "TGI"
  result: "> 100 µM"
- molecule: "O=C(CCc1nnc2s/c(=C\\c3ccc(Cl)c(Cl)c3)c(=O)n12)Nc1ccc(Cl)c(Cl)c1"
  experimental-system: "OVCAR-5 ovarian"
  measurement-kind: "TGI"
  result: "> 100 µM"
- molecule: "COc1cccc2c1CCc1c(-c3ccc(F)cc3)cc(-c3ccc4ccccc4n3)nc1-2"
  experimental-system: "OVCAR-5 ovarian"
  measurement-kind: "TGI"
  result: "> 100 µM"
- molecule: "CNC(=O)c1ccc(N2C(=S)N(c3ccc(C#N)c(C(F)(F)F)c3)C(=O)C2(C)C)cc1F"
  experimental-system: "OVCAR-5 ovarian"
  measurement-kind: "TGI"
  result: "> 92.4 µM"
- molecule: "O=C1CC(=O)N(C(=O)c2nn(-c3ccc(Cl)cc3)cc2O)N1"
  experimental-system: "OVCAR-5 ovarian"
  measurement-kind: "TGI"
  result: "> 100 µM"
- molecule: "Cc1c2oc3c(C)ccc(C(=O)NC4C(=O)NC(C(C)C)C(=O)N5CCCC5C(=O)N(C)CC(=O)N(C)C(C(C)O)C(=O)OC4C)c3nc-2c(C(=O)NC2C(=O)NC(C(C)C)C(=O)N3CCCC3C(=O)N(C)CC(=O)N(C)C(C(C)O)C(=O)OC2C)c(N)c1=O (centres undefined) (I: TVP[Sar][NMeT] / II: TVP[Sar][NMeT]; ester I:1-I:C, II:1-II:C; linker I:N-II:N via Actinocin(9to1); configuration not given here)"
  experimental-system: "OVCAR-5 ovarian"
  measurement-kind: "TGI"
  result: "> 43.4 µM"
- molecule: "COc1ccc2nccc(SCC(=O)O)c2c1"
  experimental-system: "OVCAR-5 ovarian"
  measurement-kind: "TGI"
  result: "> 100 µM"
- molecule: "COC(=O)[C@]12CC[C@H]3CC[C@H]([C@H]31)[C@H](c1ccccc1)N2"
  experimental-system: "OVCAR-5 ovarian"
  measurement-kind: "TGI"
  result: "31.4 µM"
- molecule: "c1cc(N2CCCN(c3ccc(C4=NCCCN4)cc3)CC2)ccc1C1=NCCCN1"
  experimental-system: "OVCAR-5 ovarian"
  measurement-kind: "TGI"
  result: "> 100 µM"
- molecule: "O=C1[C@H]2ON(c3ccccc3)C(c3ccccc3)[C@H]2C(=O)N1c1ccc(Cc2ccc(N3C(=O)[C@@H]4ON(c5ccccc5)C(c5ccccc5)[C@@H]4C3=O)cc2)cc1 (some centres undefined)"
  experimental-system: "OVCAR-5 ovarian"
  measurement-kind: "TGI"
  result: "> 100 µM"
- molecule: "Cc1cccc2c1C(=O)[C@](C)([C@]1(C)Nc3cccc(C)c3C1=O)N2"
  experimental-system: "OVCAR-5 ovarian"
  measurement-kind: "TGI"
  result: "58 µM"
- molecule: "C=CCN1C(=O)/C(=C\\c2cc(C(C)(C)C)c(O)c(C(C)(C)C)c2)NC1=S"
  experimental-system: "OVCAR-5 ovarian"
  measurement-kind: "TGI"
  result: "> 100 µM"
